Measurement protocol: Preparation of ink and evaluation of solubility in low polar solvents (saturated solution, absorption maximum, εC)
Format: physicochemical
Cond: Decalin, saturated solution, room temperature
Value kind: Solubility (% by mass)
Please state the figure in % by mass; there is no need to write the unit.

Reference set (3 entries):
>>> print(df.to_string())
                                   compound  units_symbol  reported_measurement
0  C=CCn1c(N=Nc2ccc(N(CCC)CCC)cc2NC(C)=O)nc(C#N)c1C#N [Comparative Compound 4, reference compound]     % by mass                  0.01
1  CCCCC(CC)CNc1ccc(NCC(CC)CCCC)c2c1C(=O)c1ccc(C(=O)OCC(C)C)cc1C2=O (stereo not shown) [Illustrative Compound 3]     % by mass                  10.0
2  CCCCC(CC)CNc1ccc(NCC(CC)CCCC)c2c1C(=O)c1ccccc1C2=O (stereo not shown) [Illustrative Compound 1]     % by mass                  9.98

Now consider the entry below.
# lookup: Solubility of CNc1ccc(Nc2ccc(C)cc2)c2c1C(=O)c1ccccc1C2=O [Comparative Compound 1, C.I. Solvent Blue 11, reference compound]
0.07

* * *

Recorded measurements of εC, one per entry
Measurement protocol: Preparation of ink and evaluation of solubility in low polar solvents (saturated solution, absorption maximum, εC)
Format: physicochemical
Cond: ISOPAR M solution
Report as a plain number; the unit cm⁻¹ is understood.

Would you please look over these solved cases?
                                   molecule  units_symbol  reported_measurement
0  CNc1ccc(Nc2ccc(C)cc2)c2c1C(=O)c1ccccc1C2=O [Comparative Compound 1, C.I. Solvent Blue 11, reference compound]          cm⁻¹                     7
1  CCCCC(CC)CNc1ccc(NCC(CC)CCCC)c2c1C(=O)c1ccccc1C2=O (centres unmarked)          cm⁻¹                  1200
2  CCCCC(CC)CNc1ccc(NCC(CC)CCCC)c2c1C(=O)c1ccc(C(=O)OCCC)cc1C2=O (centres unmarked)          cm⁻¹                  1200

Pending molecule:
Can you share its εC? I mean this molecule: CCCCC(CC)CNc1ccc(NCC(CC)CCCC)c2c1C(=O)c1ccc(C(=O)OCC(C)C)cc1C2=O (centres unmarked)
1400

* * *

Quick reference for Absorption maximum wavelength among some compounds
Measurement protocol: Preparation of ink and evaluation of solubility in low polar solvents (saturated solution, absorption maximum, εC)
Assay type: physicochemical
Cond: Tetradecane solution

>>> print(df.to_string())
                                   compound                     value_kind  reported_measurement
0  CCCCC(CC)CNc1ccc(NCC(CC)CCCC)c2c1C(=O)c1ccc(C(=O)OCC(C)C)cc1C2=O (centres unmarked) [Illustrative Compound 3]  Absorption maximum wavelength                668 nm
1  CCCCC(CC)CNc1ccc(NCC(CC)CCCC)c2c1C(=O)c1ccccc1C2=O (centres unmarked) [Illustrative Compound 1]  Absorption maximum wavelength                651 nm
2  CNc1ccc(Nc2ccc(C)cc2)c2c1C(=O)c1ccccc1C2=O [Comparative Compound 1, C.I. Solvent Blue 11, reference compound]  Absorption maximum wavelength                595 nm

# context switch: different compound, same Absorption maximum wavelength
Form field: reported Absorption maximum wavelength of CCCCC(CC)CNc1ccc(NCC(CC)CCCC)c2c1C(=O)c1ccc(C(=O)OCCC)cc1C2=O (centres unmarked) [Illustrative Compound 4]
668 nm
